Test: Human HepG2 cell viability assay in 384 well format
Assay type: toxicity, cell-based
Design: dose 125 nL, time 70.5 hour; concentration not given beside the values
Details: HepG2 cells, read-out: Inhibition
Listing of entries alongside the reported cytotoxicity at 70.5 h.
Note: unit % is implicit; provide only the numeric part.

Record summary for CNC(=O)[C@@]12CCCN(c3ncccn3)[C@@H]1CN(C(=O)NC(C)C)C2 : reported cytotoxicity at 70.5 h = 34.2

Record summary for COc1cccc(S(=O)(=O)CCNC2CCc3ncnn3C2)c1 (stereo unspecified) : reported cytotoxicity at 70.5 h = -4.52

Record summary for OCC(CO)Nc1nc(C(F)F)nc2ccccc12 : reported cytotoxicity at 70.5 h = -3.24

Record summary for COCCN1CCC(CNC(=O)Nc2ccc(F)c(Cl)c2)C1 (stereo unspecified) : reported cytotoxicity at 70.5 h = 24.8

Record summary for Oc1cc(-c2ccsc2)nc(C2CCN(Cc3cccnc3)CC2)n1 : reported cytotoxicity at 70.5 h = -5.93

Record summary for CC(C)(NS(C)(=O)=O)c1nc(-c2ccc(F)c(F)c2)no1 : reported cytotoxicity at 70.5 h = -5.95

Record summary for CC(C)N1CCC(O)(CNC(=O)CC2OCCc3ccccc32)CC1 (stereo unspecified) : reported cytotoxicity at 70.5 h = 4.01

Record summary for Cc1cccc(CNC(C)c2ccc(OCC(=O)NC3CC3)cc2)c1 (stereo unspecified) : reported cytotoxicity at 70.5 h = -0.442

Record summary for CC(C)NC(=O)CNC(=O)N1CCc2c([nH]c3ccc(Cl)cc23)C1 : reported cytotoxicity at 70.5 h = -7.52

Record summary for CCCC(NC(=O)c1cscc1C)c1nnn[nH]1 (stereo unspecified) : reported cytotoxicity at 70.5 h = -2.41

Record summary for C=Cn1ncc(CN2C[C@@H]3CCCN3C[C@@H]2Cc2ccccc2)c1C : reported cytotoxicity at 70.5 h = -2.66

---

Test: Human HepG2 cell viability assay in 384 well format
Format: toxicity, cell-based
Design: dose 125 nL, time 70.5 hour; concentration not given beside the values
Details: HepG2 cells, read-out: Inhibition
Listing of entries alongside the reported cytotoxicity at 70.5 h.
Note: unit % is implicit; provide only the numeric part.

Known cytotoxicity at 70.5 h results, listed for orientation:
Record summary for Cc1ccc2c(n1)N(CC1CC1)CCN(Cc1ccco1)C2 : reported cytotoxicity at 70.5 h = 1.82

Record summary for O=C(CCc1cc2n(n1)CCCN(C(=O)c1ccncc1)C2)NC1CC1 : reported cytotoxicity at 70.5 h = -6.73

Record summary for CCCN(C(=O)c1cnns1)C1CCCN(Cc2ccccc2)C1 (stereo unspecified) : reported cytotoxicity at 70.5 h = -7.29

Record summary for Cc1cccc(N2CC[C@@H]3CN(Cc4csc(C)n4)CCO[C@@H]3C2)n1 : reported cytotoxicity at 70.5 h = 2.82

Record summary for CCOc1ccc(C#N)cc1NCC(=O)NC1(C#N)CCCC1 : reported cytotoxicity at 70.5 h = -6.01

Others:
Record summary for O=C(Cn1nnn(-c2cccs2)c1=O)NCC1CCOC1 (stereo unspecified) : reported cytotoxicity at 70.5 h = 11.8

---

Assay: Human HepG2 cell viability assay in 384 well format
Assay type: toxicity, cell-based
Design: dose 125 nL, time 70.5 hour; concentration not given beside the values
Details: HepG2 cells, read-out: Inhibition
Quantity: cytotoxicity at 70.5 h (%)
Note: unit % is implicit; provide only the numeric part.

Known cytotoxicity at 70.5 h results, listed for orientation:
Record summary for Cc1cccc(C(=O)NCc2ccccc2)n1 : reported cytotoxicity at 70.5 h = -15.5

Record summary for CN(C)Cc1nc(C2(NC(=O)Nc3ccccc3)CCCC2)no1 : reported cytotoxicity at 70.5 h = -12.8

Record summary for CCS(=O)(=O)N1CC[C@H]2OCC[C@@]2(c2nnc(C)o2)C1 : reported cytotoxicity at 70.5 h = -7.55

Record summary for CN(CC(=O)NS(=O)(=O)c1ccsc1)Cc1ccccc1 : reported cytotoxicity at 70.5 h = -6.37

Record summary for COc1cnc(C2(O)CCN(C(=O)c3ccccn3)CC2)c(OC)n1 : reported cytotoxicity at 70.5 h = -13.1

Record summary for CC(=O)N1CCCCCC1C1CCN(Cc2nc(C(C)C)no2)CC1 (stereo unspecified) : reported cytotoxicity at 70.5 h = 0.62

Others:
Record summary for O=C(CC1CC1)NCc1cc(=O)n2c(n1)CN(Cc1ccoc1)CCC2 : reported cytotoxicity at 70.5 h = -5.33

Record summary for Cn1cc(CN2CCC[C@]3(C(=O)O)CN(c4ncccn4)C[C@@H]3C2)cn1 : reported cytotoxicity at 70.5 h = -12

Record summary for COCCN1CCCC(C)(c2cc(O)[nH]n2)C1 (stereo unspecified) : reported cytotoxicity at 70.5 h = 1.15

Record summary for O=C(c1ccc2nccnc2c1)N1CCN(CCO)[C@@H]2CS(=O)(=O)C[C@@H]21 : reported cytotoxicity at 70.5 h = -9.05

Record summary for c1cnn(CC2CN(Cc3nc(C4CC4)no3)CCO2)c1 (stereo unspecified) : reported cytotoxicity at 70.5 h = 19.7

---

Assay: Human HepG2 cell viability assay in 384 well format
Format: toxicity, cell-based
Parameters: dose 125 nL, time 70.5 hour; concentration not given beside the values
Conditions: HepG2 cells, read-out: Inhibition
Quantity: cytotoxicity at 70.5 h (%)
Note: unit % is implicit; provide only the numeric part.

Known cytotoxicity at 70.5 h results, listed for orientation:
Record summary for COC(=O)c1ccc(N2CCN(C(=O)c3cc(C)no3)C(C)C2)cc1 (centres undefined) : reported cytotoxicity at 70.5 h = -12

Record summary for Cc1n[nH]c(C)c1NC(=O)c1cccc(OCC(F)(F)F)n1 : reported cytotoxicity at 70.5 h = -10.8

Record summary for N#Cc1cccc(C(=O)N2CCN(c3ncccn3)CC2)c1 : reported cytotoxicity at 70.5 h = 14.3

Record summary for CC(Oc1ccccc1C(F)(F)F)C(=O)NCCC(=O)N(C)C (centres undefined) : reported cytotoxicity at 70.5 h = 0.999

Record summary for Cc1c(C(C)NC2CSCCSC2)cnn1-c1ccc(F)cc1F (centres undefined) : reported cytotoxicity at 70.5 h = -9.32

Record summary for CCS(=O)(=O)N1CCCC(c2nc3ccccc3n2C(C)C)C1 (centres undefined) : reported cytotoxicity at 70.5 h = -3.94

Others:
Record summary for Cc1cccc(CN2C[C@H]3CCC[C@@]3(COCc3csc(C)n3)C2)n1 : reported cytotoxicity at 70.5 h = -6.32

Record summary for Cc1nc(CN2CCO[C@@H]3CN(C(=O)NC(C)C)CC[C@@H]3C2)cs1 : reported cytotoxicity at 70.5 h = -6.02

Record summary for COc1cccc(OCC(=O)N(C)c2cccnc2N(C)C)c1 : reported cytotoxicity at 70.5 h = -8.02

Record summary for CNC(=O)CN1CCc2c(CNc3nccs3)n[nH]c2C1 : reported cytotoxicity at 70.5 h = -10.9

Record summary for Cc1cc(CNC(=O)NCc2ccccc2N2CCOCC2)no1 : reported cytotoxicity at 70.5 h = 1.76

Record summary for O=C(Cn1nc(-c2ccc(F)cc2)oc1=O)NCC1CCCO1 (centres undefined) : reported cytotoxicity at 70.5 h = -3.49

Record summary for CCOc1cc(CN(C)CCC#N)ccc1OC(F)F : reported cytotoxicity at 70.5 h = -5.38

Record summary for Cn1c(CN2CCCC(Cn3cc(CCO)nn3)C2)cc2ccccc21 (centres undefined) : reported cytotoxicity at 70.5 h = -0.291

Record summary for Cc1noc([C@@H]2C[C@H](NC(=O)Nc3cccc(F)c3)CN2C)n1 : reported cytotoxicity at 70.5 h = 6.23

Record summary for Cc1ccc2c(c1)CN(CC(=O)NCCc1ccc(F)cc1)CC(C)O2 (centres undefined) : reported cytotoxicity at 70.5 h = -7.54

Record summary for COc1ncccc1CNC(=O)Nc1cccnc1N1CCCC1 : reported cytotoxicity at 70.5 h = 5.6

Record summary for CSCC(=O)NC1CC(=O)N(CCc2ccccc2)C1 (centres undefined) : reported cytotoxicity at 70.5 h = -10.9

Record summary for CCN(CC)Cc1ccc(C(=O)N2CCCC2c2cnn(C)c2)o1 (centres undefined) : reported cytotoxicity at 70.5 h = 21.2

Record summary for Cc1cc(CSCc2cc(C)on2)on1 : reported cytotoxicity at 70.5 h = 12.2

Record summary for COc1ccc2c(c1)nc1n2[C@@H](CNCc2nccs2)COC1 : reported cytotoxicity at 70.5 h = -13.7

---

Listing of entries alongside the reported cytotoxicity at 70.5 h.
Assay: Human HepG2 cell viability assay in 384 well format
Assay type: toxicity, cell-based
Set-up: dose 125 nL, time 70.5 hour; concentration not given beside the values
Settings: HepG2 cells, read-out: Inhibition
Form entry: enter the amount, then its unit.

Known cytotoxicity at 70.5 h results, listed for orientation:
Record summary for Cc1nn2c(-c3snnc3C)nnc2s1 : reported cytotoxicity at 70.5 h = 27.8%

Record summary for O=C(NC[C@H]1Cn2c(-c3ccccc3)cnc2CO1)C1CCOCC1 : reported cytotoxicity at 70.5 h = -9.93%

Record summary for O=C(O)C1CCN(c2ccc(Sc3ccc(Br)cc3)nn2)CC1 : reported cytotoxicity at 70.5 h = 26.1%

Others:
Record summary for CC1(C)Oc2ccc(NC(=O)c3ccc(=O)[nH]n3)cc2O1 : reported cytotoxicity at 70.5 h = -12.5%
